System: 475296-252-R-J1-PDC spheroid viability
Experiment: Anticancer human tumor 475296-252-R-J1-PDC patient-derived rectal carcinoma cell line growth inhibition [PI3K]
Settings: second compound 0.0316 µM; first compound 0.1 µM; stronger effect = lower value; spheroids with HUVEC and MSC
property name: viability, T/C (%)

compound	unit	measured number
C[C@@H](NC(=O)c1ncnc(N)c1Cl)c1ncc(C(=O)Nc2cc(C(F)(F)F)c(Cl)cn2)s1 + CC(Nc1ccc2c(c1)OCCn1cc(N3C(=O)OCC3C(F)F)nc1-2)C(N)=O	%	102
C[C@@H](NC(=O)c1ncnc(N)c1Cl)c1ncc(C(=O)Nc2cc(C(F)(F)F)c(Cl)cn2)s1 + Cc1nc(NC(=O)N2CCCC2C(N)=O)sc1-c1ccnc(C(C)(C)C(F)(F)F)c1	%	82.2
C#Cc1c(F)ccc2cc(O)cc(-c3ncc4c(N5CC6CCC(C5)N6)nc(OCC56CCCN5CC(F)C6)nc4c3F)c12 (stereo not given) + CC(Nc1ccc2c(c1)OCCn1cc(N3C(=O)OCC3C(F)F)nc1-2)C(N)=O	%	87.2
Cn1nccc1Nc1nccc(-c2ccn(C(CO)c3ccc(Cl)c(F)c3)c(=O)c2)n1 (stereo not given) + CC(Nc1ccc2c(c1)OCCn1cc(N3C(=O)OCC3C(F)F)nc1-2)C(N)=O	%	105
C[C@@H](NC(=O)c1ncnc(N)c1Cl)c1ncc(C(=O)Nc2cc(C(F)(F)F)c(Cl)cn2)s1 + COc1c(OCCCN2CCOCC2)ccc2c3n(c(=NC(=O)c4cnc(N)nc4)nc12)CCN3	%	83.7

---

Test system: 475296-252-R-J1-PDC spheroid viability
Test: Anticancer human tumor 475296-252-R-J1-PDC cell line growth inhibition [PI3K];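 note: spheroids exposed to agents for seven days before readout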
Settings: compound 10 µM; stronger effect = lower value; spheroids with HUVEC and MSC

compound	viability, T/C
Cn1ncc(Cl)c1-c1cc(C(=O)NC(CN)Cc2cccc(F)c2)sc1Cl (stereo unspecified)	70.7% [middle of 4 runs]
CNC(=O)c1ccc(N2C(=S)N(c3ccc(C#N)c(C(F)(F)F)c3)C(=O)C2(C)C)cc1F	98.3% [middle of 4 runs]
C=CC(=O)N1CCN(c2nc(=O)n(-c3c(C)ccnc3C(C)C)c3nc(-c4c(O)cccc4F)c(F)cc23)C(C)C1 (stereo unspecified)	110% [middle of 4 runs]
CC(Cn1ccc(-c2ccc(C#N)c(Cl)c2)n1)NC(=O)c1cc(C(C)O)[nH]n1 (stereo unspecified)	105% [middle of 4 runs]
Cc1nc(NC(=O)N2CCCC2C(N)=O)sc1-c1ccnc(C(C)(C)C(F)(F)F)c1 (stereo unspecified)	81.6% [middle of 8 runs]
CC(C)NCC(C(=O)N1CCN(c2ncnc3c2C(C)CC3O)CC1)c1ccc(Cl)cc1 (stereo unspecified)	62.3% [middle of 4 runs]
C[C@@H](NC(=O)c1ncnc(N)c1Cl)c1ncc(C(=O)Nc2cc(C(F)(F)F)c(Cl)cn2)s1	87.5% [middle of 4 runs]
Cn1nccc1Nc1nccc(-c2ccn(C(CO)c3ccc(Cl)c(F)c3)c(=O)c2)n1 (stereo unspecified)	82.3% [middle of 4 runs]
CCCS(=O)(=O)Nc1ccc(F)c(C(=O)c2c[nH]c3ncc(-c4ccc(Cl)cc4)cc23)c1F	95.3% [middle of 4 runs]
C#Cc1c(F)ccc2cc(O)cc(-c3ncc4c(N5CC6CCC(C5)N6)nc(OCC56CCCN5CC(F)C6)nc4c3F)c12 (stereo unspecified)	56.8% [middle of 4 runs]
CC(Nc1ncnc2nc[nH]c12)c1cc2cccc(Cl)c2c(=O)n1-c1ccccc1 (stereo unspecified)	94.9% [middle of 8 runs]
